SYSTEM_NAME: T1, human tissue factor (TF), membrane-bound on cells (human, UniProt P13726 33-295)
T1 construct: whole, on cells; also called cellular TF
METHOD_NOTES: FACS, A431 cells
pEC50: −log10 of the molar value.
ENDPOINT_NAME: pEC50

{"BINDER": "anti-TF HuMab 011 (antibody, V domains shown, Human monoclonal antibody from HuMab mice; also called HuMab-TF-11) VH: EVQLLESGGGLVQPGGSLRLSCAASGFTFSNYAMSWVRQAPGKGLEWVSSISGSGDYTYYTDSVKGRFTISRDNSKNTLYLQMNSLRAEDTAVYYCARSPWGYYLDSWGQGTLVTVSS VL: DIQMTQSPPSLSASAGDRVTITCRASQGISSRLAWYQQKPEKAPKSLIYAASSLQSGVPSRFSGSGSGTDFTLTISSLQPEDFATYYCQQYNSYPYTFGQGTKLEIK", "READING": 9.70}
{"BINDER": "anti-TF HuMab 003 (antibody, V domains shown, Human monoclonal antibody from HuMab mice; also called HuMab-TF-003) VH: QVQLVQSGAEVKKPGSSVKVSCKAPRGTFSYYTISWVRQAPGQGLEWMGRIIPILGVANYAQKFQGRVTITADKSTSTAYMELSSLRSEDTAVYYCAREGDRRYFDYWGQGTLVTVSS VL: AIQLTQSPSSLSASVGDRVTITCRASQDISSALAWYQQKPGKAPKLLIYDASILESGVPSRFSGSGSGTDFTLTISSLQPEDFATYYCQQFNSYPLTFGGGTKVEIK", "READING": 8.16}
{"BINDER": "anti-TF HuMab 101 (antibody, V domains shown, Human monoclonal antibody from HuMab mice) VH: EVQLLESGGGLVQPGGSLRLSCAASGFTFSNYAMSWVRQAPAKGLDWVSGISGSGVTTYYADSVKGRFTISRDNSKDTLYLQMNSLRAEDTAVYFCAKTPWGYYFDYWGQGILVAVSS VL: DIQMTQSPSSLSASVGDRVTITCRASQGISSWLAWYQQKPEKAPKSLIYAASSLQSGVPSRFSGSGSGTDFTLTISSLQPEDFATYYCQQYNSYPLYTFGQGTKLEIK", "READING": 8.50}
